Entries and their measured IC50 follow.
System: HL-60
Measurement Protocol: Antiproliferative activity against human HL60 cells after 72 hrs by MTT assay
Format: functional, cell-based
Test Conditions: HL-60, 72 h
Property: IC50

>>> value("O=C(O)CCCCC1CCSS1 (centres undefined)")
"16400 nM"
>>> value("CN1c2ccccc2C(=O)N2CCc3c(n(CC(=O)OCCCOc4ccc(-c5cc(=S)ss5)cc4)c4ccccc34)C21 (centres undefined)")
"2740 nM"
>>> value("CN1c2ccccc2C(=O)N2CCc3c(n(CC(=O)OCCOc4ccc(-c5cc(=S)ss5)cc4)c4ccccc34)C21 (centres undefined)")
"1920 nM"
>>> value("CN1c2ccccc2C(=O)N2CCc3c(n(CCCC(=O)OCCCCOc4ccc(-c5cc(=S)ss5)cc4)c4ccccc34)C21 (centres undefined)")
"700 nM"
>>> value("Oc1ccc(-c2cc(=S)ss2)cc1")
"25900 nM"
>>> value("O=c1[nH]cc(F)c(=O)[nH]1")
"3460 nM"
>>> value("CN1c2ccccc2C(=O)N2CCc3c(n(CCCCC(=O)OCCOc4ccc(-c5cc(=S)ss5)cc4)c4ccccc34)C21 (centres undefined)")
"2090 nM"
>>> value("CN1c2ccccc2C(=O)N2CCc3c(n(CCCCCCOC(=O)CCCCC4CCSS4)c4ccccc34)C21 (centres undefined)")
"3490 nM"
>>> value("CN1c2ccccc2C(=O)N2CCc3c(n(CCCC(=O)OCCCOc4ccc(-c5cc(=S)ss5)cc4)c4ccccc34)C21 (centres undefined)")
"1040 nM"

----------
Entries and their measured IC50 follow.
System: HL-60
Measurement Protocol: Antiproliferative activity against human HL60 cells after 72 hrs by MTT assay
Type: functional, cell-based
Test Conditions: HL-60, 72 h
Property: IC50 (nM)

>>> value("CN1c2ccccc2C(=O)N2CCc3c(n(CCCOC(=O)CCCCC4CCSS4)c4ccccc34)C21 (stereo unspecified)")
2090
>>> value("CN1c2ccccc2C(=O)N2CCc3c(n(CC(=O)OCCCCOc4ccc(-c5cc(=S)ss5)cc4)c4ccccc34)C21 (stereo unspecified)")
830
>>> value("CN1c2ccccc2C(=O)N2CCc3c(n(CCCC(=O)OCCOc4ccc(-c5cc(=S)ss5)cc4)c4ccccc34)C21 (stereo unspecified)")
1030
>>> value("CN1c2ccccc2C(=O)N2CCc3c(n(CCCCC(=O)OCCCCOc4ccc(-c5cc(=S)ss5)cc4)c4ccccc34)C21 (stereo unspecified)")
580
>>> value("CN1c2ccccc2C(=O)N2CCc3c(n(CCCCC(=O)OCCCOc4ccc(-c5cc(=S)ss5)cc4)c4ccccc34)C21 (stereo unspecified)")
990
>>> value("CN1c2ccccc2C(=O)N2CCc3c([nH]c4ccccc34)C21 (stereo unspecified)")
1360
>>> value("CN1c2ccccc2C(=O)N2CCc3c(n(CCCC(=O)Oc4ccc(-c5cc(=S)ss5)cc4)c4ccccc34)C21 (stereo unspecified)")
14100
>>> value("CN1c2ccccc2C(=O)N2CCc3c(n(CCCOCCCOC(=O)CCCCC4CCSS4)c4ccccc34)C21 (stereo unspecified)")
9380
>>> value("CN1c2ccccc2C(=O)N2CCc3c(n(CCOC(=O)CCCCC4CCSS4)c4ccccc34)C21 (stereo unspecified)")
970
